- Tested On: hGLP-1R (Homo sapiens, UniProt P43220)
- Assay Text: cell-based or functional assay
*1 amine or outer side, *2 acyl side, *3 side chain or, on linkers, in order; H or OH if unused. Where no end group is shown, it is not given here. Side-chain parts run from the residue outwards. [ ]: non-standard residue; d: D form. The star is where a group is joined. αMePhe(2-F) = C[C@](N)(Cc1ccccc1F)C(=O)O; γGlu = O=C(O)[C@H](CCC(=O)[*:2])N[*:1]; C14 diacid = O=C(O)CCCCCCCCCCCCC(=O)*; αMeY = C[C@](N)(Cc1ccc(O)cc1)C(=O)O; αMeL = CC(C)C[C@](C)(N)C(=O)O; Orn = NCCC[C@H](N)C(=O)O; AEEA = NCCOCCOCC(=O)O; Aib = CC(C)(N)C(=O)O
Assay Readout: cAMP Emax (%)
Hi! Could you send only the number? It should be in %, unit omitted.

Here are 2 binders together with their reported answers.
Binder	Quantitative Result
YXEGTXTSDXXIXLDXKAQXXFIXXLIEGGPSSGAPPPSK (Y-Aib-EGT-αMeF(2F)-TSD-4Pal-Aib-I-αMeL-LD-Orn-K((2-[2-(2-Amino-ethoxy)-ethoxy]-acetyl)2-(γ-Glu)-CO-(CH2)10-CH3)AQ-Aib-Orn-FI-(D-Glu)-αMeY-LIEGGPSSGAPPPSK((2-[2-(2-Amino-ethoxy)-ethoxy]-acetyl)2-(γ-Glu)-CO-(CH2)10-CH3)-NH2) [Example 418]	93.7
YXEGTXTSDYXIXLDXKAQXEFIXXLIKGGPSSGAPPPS (Y-Aib-EGT-αMeF(2F)-TSDY-Aib-I-αMeL-LD-Orn-K((2-[2-(2-Amino-ethoxy)-ethoxy]-acetyl)2-(10-(4-carboxyphenoxy)decanoyl))AQ-Aib-EFI-(D-Glu)-αMeY-LIK((2-[2-(2-Amino-ethoxy)-ethoxy]-acetyl)2-(10-(4-carboxyphenoxy)decanoyl))GGPSSGAPPPS-NH2) [Example 396]	107

Task: What value of measured cAMP Emax is listed for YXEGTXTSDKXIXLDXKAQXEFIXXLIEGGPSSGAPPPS (Y-Aib-EGT-αMeF(2F)-TSDK((2-[2-(2-Amino-ethoxy)-ethoxy]-acetyl)-(γ-Glu)-CO-(CH2)10-CH3)-Aib-I-αMeL-LD-Orn-K((2-[2-(2-Amino-ethoxy)-ethoxy]-acetyl)-(γ-Glu)-CO-(CH2)10-CH3)AQ-Aib-EFI-(D-Glu)-αMeY-LIEGGPSSGAPPPS-NH2) [Example 425] ?
Result: 108

Task: Please do the same for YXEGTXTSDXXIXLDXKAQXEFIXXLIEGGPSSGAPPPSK (Y-Aib-EGT-αMeF(2F)-TSD-4Pal-Aib-I-αMeL-LD-Orn-K((2-[2-(2-Amino-ethoxy)-ethoxy]-acetyl)2-(γ-Glu)-CO-(CH2)10-CH3)AQ-Aib-EFI-(D-Glu)-αMeY-LIEGGPSSGAPPPSK((2-[2-(2-Amino-ethoxy)-ethoxy]-acetyl)2-(γ-Glu)-CO-(CH2)10-CH3)-NH2) [Example 324] as well.
Result: 97.6

Task: Please do the same for Y[Aib]EGT[αMePhe(2-F)]TSDV[Aib]I[αMeL]LD[Orn]K([AEEA-AEEA-γGlu-C14 diacid])AQ[Aib][Orn]FI[dE][αMeY]LIK([AEEA-AEEA-γGlu-C14 diacid])GGPSSGAPPPS-NH2 [Example 350] as well.
Result: 95.9
